# Test system: soybean (Glycine max Merr.)
# assayRemarks: Test Example 1: foliar treatment, growth inhibition rate on 14th day
# Assay type: in vivo
# conditionDescription: active ingredient amount 31 g/ha, 14th day after application
measureName: Growth inhibition rate (%) Soybean
Write the number in % without appending the unit.

Known Growth inhibition rate (%) Soybean results, listed for orientation:
| molecule | assayValue |
| --- | --- |
| CCc1ccc(Oc2nc3cc(Cl)ccc3o2)cc1-c1c(O)c(C)nn(C)c1=O [Compound 2-161] | 0 |
| Cc1ccc(Oc2nc3cc(Cl)ccc3o2)cc1-c1c(O)cnn(C)c1=O | 0 |
| Cc1nn(C)c(=O)c(-c2cc(Oc3ncc(C(F)(F)F)cc3Cl)ccc2OC(F)(F)F)c1O | 0 |
| COCOc1c(C)nn(C)c(=O)c1-c1cc(Oc2cnc3cc(Cl)ccc3n2)ccc1C | 10 |
| CC(=O)Oc1c(C)nn(C)c(=O)c1-c1cc(Oc2cnc3cc(Cl)ccc3n2)ccc1C | 30 |
| CC(=O)Oc1c(C)nn(C)c(=O)c1-c1cc(Sc2ncc(C(F)(F)F)cc2Cl)ccc1C | 10 |
| CC(=O)Oc1cnn(C)c(=O)c1-c1cc(Oc2ncc(C(F)(F)F)cc2Cl)ccc1C | 0 |
| CC(=O)Oc1c(C)nn(C)c(=O)c1-c1cc(Oc2ncc(C(F)(F)F)cc2F)ccc1C | 0 |
| CC(=O)Oc1c(C)nn(C)c(=O)c1-c1cc(Oc2ncc(Cl)cc2C(F)(F)F)ccc1C | 0 |
| Cc1ccc(Oc2ncc(Br)cc2Cl)cc1-c1c(O)c(C)nn(C)c1=O | 20 |

Give recorded Growth inhibition rate (%) Soybean with soybean (Glycine max Merr.) for the following molecule: `Cc1ccc(Oc2nc3ccc(Cl)cc3o2)cc1-c1c(O)cnn(C)c1=O`
35

Test system soybean (Glycine max Merr.); read-out Growth inhibition rate (%) Soybean; what value for `CC(=O)Oc1c(C)nn(C)c(=O)c1-c1cc(Oc2cnc(C(F)(F)F)cn2)ccc1C` ?
30

Item `Cc1ccc(Oc2cnc3cc(Cl)ccc3n2)cc1-c1c(OC(=O)C(C)(C)C)c(C)nn(C)c1=O` with soybean (Glycine max Merr.) - Growth inhibition rate (%) Soybean?
0

Provide value of Growth inhibition rate (%) Soybean for this record tested with soybean (Glycine max Merr.): `CC(=O)Oc1c(C)nn(C)c(=O)c1-c1cc(Oc2nc3ccc(C(F)(F)F)nc3o2)ccc1C`
0

Value wanted: Growth inhibition rate (%) Soybean (soybean (Glycine max Merr.)) of entry `Cc1c(Oc2ncc(C(F)(F)F)cc2Cl)cccc1-c1c(O)cnn(CC2CC2)c1=O`
15

Write down the reported Growth inhibition rate (%) Soybean of `Cc1ccc(Oc2cnc(C(F)(F)F)cn2)cc1-c1c(O)c(C)nn(C)c1=O` , test system: soybean (Glycine max Merr.).
10

Provide value of Growth inhibition rate (%) Soybean for this record tested with soybean (Glycine max Merr.): `CC(=O)Oc1c(C)nn(C)c(=O)c1-c1cc(Oc2ncc(C(F)(F)F)cc2Cl)ccc1C1CC1`
0

Kindly state the measured Growth inhibition rate (%) Soybean obtained for Cc1ccc(Oc2cnc3cc(Cl)ccc3n2)cc1-c1c(O)c(C)nn(C)c1=O [Compound 3-1] with soybean (Glycine max Merr.).
0

Provide value of Growth inhibition rate (%) Soybean for this record tested with soybean (Glycine max Merr.): `CC(=O)Oc1c(C)nn(C)c(=O)c1-c1cc(Oc2ccc(C(F)(F)F)cc2)ccc1C`
10

What is its Growth inhibition rate (%) Soybean for soybean (Glycine max Merr.)? Entry: `Cc1ccc(Oc2ccc3nc(Cl)cn3n2)cc1-c1c(O)c(C)nn(C)c1=O`
0
